Measured values drawn from patent US20240141060A1 for this set.

# SYSTEM_NAME: T1, Recombinant Mouse 5′-Nucleotidase/CD73 Protein, CF (R&D Systems Cat: 4488-EN) (mouse, UniProt Q61503 29-549, limits assumed)
# T1 construct: Bought protein; also called Mouse CD73-His; recombinant mouse CD73; not shown: His tag
# T1 sequence (looked up): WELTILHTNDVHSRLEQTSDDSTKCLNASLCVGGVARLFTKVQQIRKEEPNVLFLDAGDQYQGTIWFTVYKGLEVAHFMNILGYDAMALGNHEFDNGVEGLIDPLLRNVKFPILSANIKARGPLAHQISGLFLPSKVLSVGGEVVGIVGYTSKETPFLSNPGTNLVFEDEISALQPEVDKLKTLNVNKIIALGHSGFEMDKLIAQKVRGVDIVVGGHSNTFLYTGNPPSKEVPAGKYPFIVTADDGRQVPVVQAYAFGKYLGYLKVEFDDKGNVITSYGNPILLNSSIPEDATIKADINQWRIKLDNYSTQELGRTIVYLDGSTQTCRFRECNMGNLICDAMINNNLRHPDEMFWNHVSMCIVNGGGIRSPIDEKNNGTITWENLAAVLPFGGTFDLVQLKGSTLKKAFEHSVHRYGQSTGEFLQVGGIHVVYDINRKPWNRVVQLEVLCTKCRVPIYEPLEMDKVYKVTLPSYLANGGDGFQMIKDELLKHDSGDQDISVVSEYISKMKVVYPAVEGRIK
# PROTOCOL: restated binding profile (Octet)

# BINDER, binding result
rows = [
    ("374 (antibody, V domains shown, also called Lineage 3 child) VH: EVQLLESGGGLVQPGGSLRLSCAASGFTFSYNAMSWVRQAPGKGLEWVSSISGTGGSTYYADSVKGRFTISRDNSKNTLYLQMNSLRAEDTAVYYCARGGLYGSGSYLSDFDLWGRGTLVTVSS VL: EIVLTQSPATLSVSPGERATLSCRASQSVGSNLAWYQQKPGQAPRLLIYGASTRATGIPARFSGSGSGTEFTLTISSLQSEDFAVYYCQQHNAFPYTFGGGTKVEIK", "no binding"),
    ("373 (antibody, V domains shown, also called Lineage 3 child) VH: EVQLLESGGGLVQPGGSLRLSCAASGFTFHRYAMSWVRQAPGKGLEWVSAISGSGMNTYYADSVKGRFTISRDNSKNTLYLQMNSLRAEDTAVYYCARGGLYGSGSYLSDFDLWGRGTLVTVSS VL: EIVLTQSPATLSVSPGERATLSCRASQSVGSNLAWYQQKPGQAPRLLIYGASTRATGIPARFSGSGSGTEFTLTISSLQSEDFAVYYCQQHNAFPYTFGGGTKVEIK", "no binding"),
]
